The origin of these recorded values is the supplement of paper PMC11780869.

# System: Bacillus subtilis
# experiment-summary: cleaved RNA product abundance (RNA/gDNA barcode ratio) relative to median wild-type variant (ratio to wild type); higher = more accumulation of the downstream cleavage product
# test-settings: experiment (reporter, strain, medium): exp 4a: truncated aprE reporter, strain BJT201 with 2% xylose (RNase J1 expressed); cleavage site: cggR-gapA (positions -7 to +36 mutated)
attribute-measured: cleaved RNA product abundance
Reply with the value as a number alone.

Q) Entry "ACAGACGAAGGAGCCGCAAAGTAGTTATTAACGGATGAATAATCCCTCAATATAAATATCTCTCACTTATTTAAA" : reported cleaved RNA product abundance = ?
A) 0.164

Q) If you can, please state the reported cleaved RNA product abundance value of "ACAGACGAAGGAGCCGCAAAGAAATTATTAAGGGATGAATGATCCCTCAATATAAATATCTCTCACTTATTTAAA" .
A) 0.661

Q) Item under review: "ACAGACGAAGGAGCCGCAAAGAAGTTATTAAGGGATTAATAATCCCGCAATATAAATATCTCTCACTTATTTAAA" . Reported cleaved RNA product abundance?
A) 0.225

Q) // cleaved RNA product abundance lookup, key: "ACAGACGAAGGAGCCGCAAAGAAGTTATTAAGGGATGAATAATACCTCAATACAAATATCTCTCACTTATTTAAA"
A) 0.0658

Q) Field request: cleaved RNA product abundance | item: "ACAGACGAAGGAGCCGCAAAAAAGTTATTAAGAGATAAATAATCCCTCAATATAAATATCTCTCACTTATTTAAA"
A) 0.0994

Q) cleaved RNA product abundance for "ACAGACGAAGGAGCCGCAAACAAGTTATTAAAGGATGAATAATCCCTCAATATAAATATCTCTCACTTATTTAAA" ?
A) 0.116

Q) Please look up its cleaved RNA product abundance: "ACAGACGAAGGAGCCGCAAAGAAGTTATTAAGGATTGAATAATCCCTCAATATAAATATCTCTCACTTATTTAAA"
A) 0.301
